TARGET DESC: full length recombinant Pim-2 protein (Homo sapiens)
Construct: by full length recombinant Pim-1, Pim-2, or Pim-3 protein; hexahistidine tag followed by a thrombin cleavage site (N); made in house; host or cells: Sf9 (baculovirus) or E. coli (pET28)
Sequence (Q9P1W9 whole entry): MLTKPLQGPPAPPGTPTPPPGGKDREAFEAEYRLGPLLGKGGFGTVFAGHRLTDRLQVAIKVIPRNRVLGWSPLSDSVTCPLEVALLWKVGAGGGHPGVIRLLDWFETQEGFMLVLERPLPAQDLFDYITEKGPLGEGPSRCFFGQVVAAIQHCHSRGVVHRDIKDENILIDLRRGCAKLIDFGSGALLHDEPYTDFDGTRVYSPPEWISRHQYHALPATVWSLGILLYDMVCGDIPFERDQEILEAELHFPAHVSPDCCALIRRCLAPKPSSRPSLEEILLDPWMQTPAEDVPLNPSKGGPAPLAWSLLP
EXPERIMENT SUMMARY: Pim-2 enzyme assay (HTRF, phosphorylation of biotinylated-BAD (S112) peptide)
Type: biochemical
EXPERIMENTAL CONTEXT: enzyme assay, Pim-2; read-out: Pim2_IC50
MEASURE NAME: IC50 (nM)
Unit nM implied. Number only.

COMPOUND: NC1CCN(c2cncc(-c3n[nH]c4ccc(-c5cncnc5)cc34)n2)CC1 [Example 87]
IC50, nM: 43
//
COMPOUND: C1=C(c2ccc3[nH]nc(-c4cncc(O[C@@H]5CCCNC5)n4)c3c2)CCOC1 [Example 148]
IC50, nM: 25
//
COMPOUND: Fc1ncc(Cl)cc1-c1ccc2[nH]nc(-c3cncc(O[C@@H]4CCCNC4)n3)c2c1 [Example 117]
IC50, nM: 66

QUERY: Record request: IC50 value, item CC(C)Oc1cncc(-c2ccc3[nH]nc(-c4cncc(N5CCC(N)CC5)n4)c3c2)n1 [Example 5]
RESULT: 16

QUERY: Record request: IC50 value, item NC1CCN(c2cncc(-c3n[nH]c4ccc(-c5cccnc5)cc34)n2)CC1 [Example 82]
RESULT: 7

QUERY: Record request: IC50 value, item NC1CCN(c2cncc(-c3n[nH]c4ccc(-c5cc(C(=O)N6CCCCC6)ccc5F)cc34)n2)CC1 [Example 41]
RESULT: 29

* * *

System: KMS-Cell
EXPERIMENT SUMMARY: KMS cell IC50 (Table 4)
Format: cell-based
EXPERIMENTAL CONTEXT: KMS cells
Where a name gives a salt, the structure may show the parent alone.
MEASURE NAME: pIC50
In simple prose, pIC50 is minus the logarithm base ten of a concentration in moles per litre.

Consider the worked cases shown below.
COMPOUND: Fc1cccc(F)c1-c1ccc2[nH]cc(-c3cncc(OC4CNCCC45CC5)n3)c2c1 (single isomer, unassigned) [Example 438]
pIC50: 4.93
//
COMPOUND: O=c1cc(-c2n[nH]c3ccc(-c4c(F)cccc4F)cc23)nc(N[C@@H]2CCCNC2)[nH]1 [Example 282]
pIC50: 5.58
//
COMPOUND: c1coc(-c2ccc3[nH]cc(-c4cncc(N[C@@H]5CCCNC5)n4)c3c2)n1 [Example 542]
pIC50: 4.80
//
COMPOUND: CC1CNCC(Oc2cncc(-c3n[nH]c4ccc(-c5c(F)cccc5F)cc34)n2)C1 (single isomer, unassigned) [Example 469]
pIC50: 5.52
//
COMPOUND: CC(O)c1cccc(-c2ccc3[nH]cc(-c4cncc(O[C@@H]5CCCNC5)n4)c3c2)c1 (mixture of isomers) [Example 359]
pIC50: 5.32
//
COMPOUND: Clc1ccccc1-c1ccc2[nH]nc(-c3cncc(O[C@H]4CNCCC45CC5)n3)c2c1 [Example 406]
pIC50: 5.63
//
COMPOUND: c1cc2[nH]nc(-c3cncc(O[C@H]4CNCCC45CC5)n3)c2cc1C1CC1 [Example 446]
pIC50: 5.76
//
COMPOUND: O=c1cc(-c2n[nH]c3ccc(-c4c(F)cccc4F)cc23)nc(O[C@@H]2CCCNC2)[nH]1 [Example 529]
pIC50: 5.58
//
COMPOUND: c1ccc(-c2ccc3[nH]cc(-c4cncc(O[C@@H]5CCCNC5)n4)c3c2)cc1 [Example 358]
pIC50: 5.07
//
COMPOUND: CS(=O)(=O)c1cc(F)c(-c2ccc3[nH]nc(-c4cncc(O[C@H]5CNCCC56CC6)n4)c3c2)c(F)c1 [Example 467]
pIC50: 6.26

QUERY: Record request: pIC50 value, item O=c1cc(-c2n[nH]c3ccc(-c4ccc(Cl)cc4F)cc23)nc(O[C@@H]2CNCC[C@H]2F)[nH]1 (racemic) [Example 283, trifluoroacetate]
RESULT: 5.72

QUERY: Record request: pIC50 value, item c1cc2[nH]nc(-c3cncc(O[C@H]4CNCCC45CC5)n3)c2cc1C1CCCC1 [Example 447]
RESULT: 5.50

QUERY: Record request: pIC50 value, item Fc1cccc(F)c1-c1ccc2[nH]nc(-c3cncc(OC4CCNCC45CC5)n3)c2c1 (single isomer, unassigned) [Example 430]
RESULT: 5.11
